- Target Desc: MRGPRX4 (Homo sapiens, UniProt Q96LA9)
- Sequence (Q96LA9 whole entry): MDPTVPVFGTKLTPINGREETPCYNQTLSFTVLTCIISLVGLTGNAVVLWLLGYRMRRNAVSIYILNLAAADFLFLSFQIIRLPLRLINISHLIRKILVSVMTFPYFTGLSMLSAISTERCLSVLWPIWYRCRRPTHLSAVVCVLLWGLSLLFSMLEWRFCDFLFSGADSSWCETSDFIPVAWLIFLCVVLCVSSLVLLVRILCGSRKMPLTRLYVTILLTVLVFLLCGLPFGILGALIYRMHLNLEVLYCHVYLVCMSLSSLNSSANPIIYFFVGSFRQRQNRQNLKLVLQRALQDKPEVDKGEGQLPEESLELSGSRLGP
- Measurement Notes: MRGPRX4 activation, Fluo-8 Ca2+ FLIPR assay in HEK293T cells stably expressing MRGPRX4
- Format: cell-based
- Condition Parameters: second E3-8-1, 123 nM, n = 2
Measured Endpoint: Activation (%)

- CC[C@H]1[C@@H](O)[C@@H]2[C@H](CC[C@]3(C)[C@@H]([C@H](C)COC(=O)NS(=O)(=O)c4ccc(N5CCCCC5)nc4)CC[C@@H]23)[C@@]2(C)CCCC[C@@H]12: 2.86
- CC[C@H]1[C@@H](O)[C@@H]2[C@H](CC[C@]3(C)[C@@H]([C@H](C)CNC(=O)NS(=O)(=O)c4ccc(N5CCCCC5)nc4)CC[C@@H]23)[C@@]2(C)CCCC[C@@H]12: 3.79
- CC[C@H]1[C@@H](O)[C@@H]2[C@H](CC[C@]3(C)[C@@H]([C@H](C)COC(=O)NS(=O)(=O)c4ccc(C(C)(C)CF)cc4)CC[C@@H]23)[C@@]2(C)CCCC[C@@H]12: 3.17
- CC[C@H]1[C@@H](O)[C@@H]2[C@H](CC[C@]3(C)[C@@H]([C@H](C)COC(=O)NS(=O)(=O)c4ccc5c(c4)CCC(C)(C)O5)CC[C@@H]23)[C@@]2(C)CCCC[C@@H]12: 2.86

###

// MRGPRX4 activation, Average lookup, one value per entry
- Target Desc: MRGPRX4 (Homo sapiens)
- Measurement Notes: MRGPRX4 activation, Fluo-8 Ca2+ FLIPR assay in HEK293T cells stably expressing MRGPRX4
- Format: cell-based
- Design: key: fluorescence change dF/F0
- Condition Parameters: E3-9, Conc. (Log[M]) −5.9
Measured Endpoint: MRGPRX4 activation, Average

- CC[C@H]1[C@@H](O)[C@@H]2[C@H](CC[C@]3(C)[C@@H]([C@H](C)CCNC(=O)NS(=O)(=O)c4ccc(C(C)(C)CF)cc4)CC[C@@H]23)[C@@]2(C)CCC(F)(F)C[C@@H]12: 0.019
- CC[C@H]1[C@@H](O)[C@@H]2[C@H](CC[C@]3(C)[C@@H]([C@H](C)CCC(=O)O)CC[C@@H]23)[C@@]2(C)CCC(F)(F)C[C@@H]12: 0.019
- CC[C@H]1[C@@H](O)[C@@H]2[C@H](CC[C@]3(C)[C@@H]([C@H](C)CCNC(=S)NS(=O)(=O)c4ccc(C(C)(C)CF)cc4)CC[C@@H]23)[C@@]2(C)CCC(F)(F)C[C@@H]12: 0.015
- CC[C@H]1[C@@H](O)[C@@H]2[C@H](CC[C@]3(C)[C@@H]([C@H](C)CCNS(=O)(=O)C4CC4)CC[C@@H]23)[C@@]2(C)CCCC[C@@H]12: 0.018
- CC[C@H]1[C@@H](O)[C@@H]2[C@H](CC[C@]3(C)[C@@H]([C@H](C)CNC(=O)NS(=O)(=O)c4ccc(C(C)(C)CF)cc4)CC[C@@H]23)[C@@]2(C)CCCC[C@@H]12: 0.021

###

- Target Desc: human FXR (NR1H4) (Homo sapiens, UniProt Q96RI1)
- Sequence (Q96RI1 1-476 isoform Q96RI1-1): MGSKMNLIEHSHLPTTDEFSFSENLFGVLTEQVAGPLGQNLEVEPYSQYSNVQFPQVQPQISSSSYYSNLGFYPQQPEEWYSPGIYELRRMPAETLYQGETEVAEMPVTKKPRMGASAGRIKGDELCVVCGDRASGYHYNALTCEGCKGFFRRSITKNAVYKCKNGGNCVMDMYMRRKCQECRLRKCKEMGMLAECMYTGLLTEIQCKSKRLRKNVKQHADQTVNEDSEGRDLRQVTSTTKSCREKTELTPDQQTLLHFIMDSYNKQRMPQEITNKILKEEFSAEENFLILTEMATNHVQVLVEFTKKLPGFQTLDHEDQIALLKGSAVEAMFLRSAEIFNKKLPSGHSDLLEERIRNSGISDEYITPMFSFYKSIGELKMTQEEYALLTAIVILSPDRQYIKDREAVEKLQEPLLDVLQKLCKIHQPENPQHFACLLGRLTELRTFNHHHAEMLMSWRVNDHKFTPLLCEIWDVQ
- Measurement Notes: Human FXR (NR1H4) agonist assessment, FXRE-NanoLuc reporter in HEK293T cells
- Assay type: cell-based
- Condition Parameters: FXR activation, HEK293T FXRE-NanoLuc reporter, 24 hr
Measured Endpoint: Efficacy (maximum measured induction of NanoLuc, normalized to CDCA set as 100%)

• CC[C@H]1[C@@H](O)[C@@H]2[C@H](CC[C@]3(C)[C@@H]([C@H](C)Cc4nnn[nH]4)CC[C@@H]23)[C@@]2(C)CCCC[C@@H]12 [16-2] = C (100%<efficacy <=300%)
• CC[C@H]1[C@@H](O)[C@@H]2[C@H](CC[C@]3(C)[C@@H]([C@H](C)CCNS(=O)(=O)CC(C)C)CC[C@@H]23)[C@@]2(C)CCCC[C@@H]12 [6-4] = C (100%<efficacy <=300%)
• CC[C@H]1[C@@H](O)[C@@H]2[C@H](CC[C@]3(C)[C@@H]([C@H](C)COC(=O)NS(=O)(=O)c4ccc(N5CCCCC5)nc4)CC[C@@H]23)[C@@]2(C)CCCC[C@@H]12 [18-3] = A (efficacy >400%)
• CC[C@H]1[C@@H](O)[C@@H]2[C@H](CC[C@]3(C)[C@@H]([C@H](C)CCNC(=O)NS(=O)(=O)c4cc(F)ccc4F)CC[C@@H]23)[C@@]2(C)CCCC[C@@H]12 [5-23] = A (efficacy >400%)
• C[C@H](CCC(C)(C)O)[C@H]1CC[C@H]2[C@@H]3CC[C@@H]4CCCC[C@]4(C)[C@H]3CC[C@]12C [2-3] = C (100%<efficacy <=300%)
• COC(=O)CC[C@@H](C)[C@H]1CC[C@H]2[C@@H]3/C(=N\OC(C)(C)C(=O)O)C[C@@H]4C[C@H](OC(C)=O)CC[C@]4(C)[C@H]3CC[C@]12C [1-3] = C (100%<efficacy <=300%)
• CC[C@H]1[C@@H](O)[C@@H]2[C@H](CC[C@]3(C)[C@@H]([C@H](C)CCNC(=O)NS(=O)(=O)c4ccc(C(C)(C)CO)cc4)CC[C@@H]23)[C@@]2(C)CCCC[C@@H]12 [5-2] = A (efficacy >400%)
• CC[C@H]1[C@@H](O)[C@@H]2[C@H](CC[C@]3(C)[C@@H]([C@H](C)CCNC(=O)NS(=O)(=O)c4ccc(C(C)(C)C(N)=O)cc4)CC[C@@H]23)[C@@]2(C)CCCC[C@@H]12 [5-16] = C (100%<efficacy <=300%)
• CC[C@H]1[C@@H](O)[C@@H]2[C@H](CC[C@]3(C)[C@@H]([C@H](C)CCc4nnc(C(C)C)s4)CC[C@@H]23)[C@@]2(C)CCCC[C@@H]12 [15-1] = B (300%<efficacy <=400%)
• CC[C@H]1[C@@H](O)[C@@H]2[C@H](CC[C@]3(C)[C@@H]([C@H](C)COC(=O)NS(=O)(=O)c4ccc(C(C)(C)CF)cc4)CC[C@@H]23)[C@@]2(C)CCCC[C@@H]12 [18-1] = A (efficacy >400%)
• CC(C[C@@H](C)[C@H]1CC[C@H]2[C@@H]3CC[C@@H]4CCCC[C@]4(C)[C@H]3CC[C@]12C)C(=O)O (stereo partly drawn) [2-1] = C (100%<efficacy <=300%)
• CC[C@H]1[C@@H](O)[C@@H]2[C@H](CC[C@]3(C)[C@@H]([C@H](C)CCNC(=O)NS(=O)(=O)c4ccc5c(c4)CCN5C(C)=O)CC[C@@H]23)[C@@]2(C)CCCC[C@@H]12 [5-4] = B (300%<efficacy <=400%)
• C[C@H](CCC(=O)O)[C@H]1CC[C@H]2[C@@H]3CC[C@@H]4C[C@H](O)CC[C@]4(C)[C@H]3C[C@@H](O)[C@]12C [RC-4] = A (efficacy >400%)
• CCOC(=O)C(=O)NCC[C@@H](C)[C@H]1CC[C@H]2[C@@H]3[C@H](O)[C@H](CC)[C@@H]4CCCC[C@]4(C)[C@H]3CC[C@]12C [compound 53] = C (100%<efficacy <=300%)
• CC[C@H]1[C@@H](O)[C@@H]2[C@H](CC[C@]3(C)[C@@H]([C@H](C)CCNC(=O)NS(=O)(=O)C[C@]45CCC(CC4=O)C5(C)C)CC[C@@H]23)[C@@]2(C)CCCC[C@@H]12 [5-27] = A (efficacy >400%)
• CC[C@H]1[C@@H](O)[C@@H]2[C@H](CC[C@]3(C)[C@@H]([C@H](C)CCNC(=O)NS(=O)(=O)c4cc(F)ccc4F)CC[C@@H]23)[C@@]2(C)CC[C@H](F)C[C@@H]12 [9-2] = B (300%<efficacy <=400%)
• C[C@H](CCC(=O)O)[C@H]1CC[C@H]2[C@@H]3CC[C@@H]4C[C@@H](O)CC[C@]4(C)[C@H]3C[C@H](O)[C@]12C [RC-5] = B (300%<efficacy <=400%)
• CC[C@H]1[C@@H](O)[C@@H]2[C@H](CC[C@]3(C)[C@@H]([C@H](C)CCNC(=O)NS(=O)(=O)c4ccc(C(C)(C)C(=O)O)cc4)CC[C@@H]23)[C@@]2(C)CCCC[C@@H]12 [5-10] = C (100%<efficacy <=300%)
• CC[C@H]1[C@@H](O)[C@@H]2[C@H](CC[C@]3(C)[C@@H]([C@H](C)CCc4nnc(NS(=O)(=O)c5ccc6c(c5)OCO6)[nH]4)CC[C@@H]23)[C@@]2(C)CCCC[C@@H]12 [15-3] = C (100%<efficacy <=300%)
• CC[C@H]1[C@@H](O)[C@@H]2[C@H](CC[C@]3(C)[C@@H]([C@H](C)CCOC(=O)NS(=O)(=O)c4ccc(C(C)(C)CF)cc4)CC[C@@H]23)[C@@]2(C)CCCC[C@@H]12 [19-3] = A (efficacy >400%)
• CC[C@H]1[C@@H](O)[C@@H]2[C@H](CC[C@]3(C)[C@@H]([C@H](C)CCN)CC[C@@H]23)[C@@]2(C)CCC(F)(F)C[C@@H]12 [11-1] = C (100%<efficacy <=300%)
